test: Mouse microsome stability; type: in vitro ADME; details: Mouse microsomes, compound conc = 0.5 μM, n = 1; read-out: Mouse microsome stability Half life t1/2
Overview of recorded half-life at 0.5 μM for various compounds
Output spec: scalar in h, unitless text.

INSERT INTO results (compound, property_label, measured) VALUES
  ('O=C(NC1CC1)C1C(=O)c2ccc(S(=O)(=O)c3ccc4c(c3)C(=O)C(C(=O)NC3CC3)C4=O)cc2C1=O (stereo not shown)', 'half-life at 0.5 μM', 1.44),
  ('O=C(c1ccc2c(c1)C(=O)CC2=O)c1ccc2c(c1)C(=O)CC2=O', 'half-life at 0.5 μM', 0.0283);

In plain terms, Cc1ncc2n1-c1ccc(Cl)cc1C(c1ccccc1F)=NC2 [Midazolam, midazolam, reference compound] has a documented half-life at 0.5 μM of 0.0883

In plain terms, CCCNC(=O)C1C(=O)c2ccc(C(=O)c3ccc4c(c3)C(=O)C(C(=O)NCCC)C4=O)cc2C1=O (stereo not shown) has a documented half-life at 0.5 μM of 1.56

====

Overview of recorded inhibition at 3 µM for various compounds
molecular target: human PF4 (Homo sapiens, UniProt P02776); construct: PF4 is a 70 amino acid, lysine-rich 7.8 kDa platelet-specific protein; made in house; host or cells: Escherichia coli BL21DE3 pLysS (pT7-7) and/or Drosophila S2 cells; assay: Inhibition of PF4 tetramer formation (BS3 cross-linking, SDS-PAGE); format: biochemical; details: 3 μM inhibitor (column A); read-out: % inhibition of PF4 tetramer formation at single concentration of inhibitor
Output spec: scalar in %, unitless text.

Past entries and their recorded results:
INSERT INTO results (compound, property_label, measured) VALUES
  ('CN1CCC(C(=O)C2C(=O)c3ccc(C(=O)c4ccc5c(c4)C(=O)C(C(=O)C4CCN(C)CC4)C5=O)cc3C2=O)CC1 (stereo not shown) [Example 266]', 'inhibition at 3 µM', 25),
  ('CCNC(=O)C1C(=O)c2ccc(Oc3ccc4c(c3)C(=O)C(C(=O)NCC)C4=O)cc2C1=O (stereo not shown) [Example 334]', 'inhibition at 3 µM', 40),
  ('CC(C)(C)OC(=O)NCCCC(=O)C1C(=O)c2ccc(S(=O)(=O)c3ccc4c(c3)C(=O)C(C(=O)CCCNC(=O)OC(C)(C)C)C4=O)cc2C1=O (stereo not shown) [Example 387]', 'inhibition at 3 µM', 52);

In plain terms, COCCOCCNCC(=O)C1C(=O)c2ccc(S(=O)(=O)c3ccc4c(c3)C(=O)C(C(=O)CNCCOCCOC)C4=O)cc2C1=O (stereo not shown) [Example 397] has a documented inhibition at 3 µM of 9

====

Biological target: human PF4 (Homo sapiens, UniProt P02776)
Construct: PF4 is a 70 amino acid, lysine-rich 7.8 kDa platelet-specific protein; made in house; host or cells: Escherichia coli BL21DE3 pLysS (pT7-7) and/or Drosophila S2 cells
Sequence (P02776 32-101): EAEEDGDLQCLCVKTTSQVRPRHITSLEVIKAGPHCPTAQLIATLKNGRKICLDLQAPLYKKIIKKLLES
Experiment: Inhibition of PF4 tetramer formation (BS3 cross-linking, SDS-PAGE)
Format: biochemical
Conditions: read-out: IC50 of PF4 tetramer formation inhibition
Overview of recorded IC50 for various compounds
Output spec: scalar in µM, unitless text.

INSERT INTO results (compound, measured) VALUES
  ('N[C@@H](C(=O)C1C(=O)c2ccc(S(=O)(=O)c3ccc4c(c3)C(=O)C(C(=O)[C@H](N)c3ccccc3)C4=O)cc2C1=O)c1ccccc1 (stereo partly drawn) [Example 172]', 1.6);

In plain terms, O=C(c1ccc2c(c1)C(=O)C(C(=O)NCCCc1ccccc1)C2=O)c1ccc2c(c1)C(=O)C(C(=O)NCCCc1ccccc1)C2=O (stereo not drawn) [Example 24] has a documented IC50 of 5.11

In plain terms, COC(=O)c1ccccc1NC(=O)C1C(=O)c2ccc(S(=O)(=O)c3ccc4c(c3)C(=O)C(C(=O)Nc3ccccc3C(=O)OC)C4=O)cc2C1=O (stereo not drawn) [Example 97] has a documented IC50 of 8.9

In plain terms, CC(=O)C1C(=O)c2ccc(C(c3ccc4c(c3)C(=O)C(C(C)=O)C4=O)(C(F)(F)F)C(F)(F)F)cc2C1=O (stereo not drawn) [Example 11] has a documented IC50 of 1.45

In plain terms, Cc1ccccc1NC(=O)C1C(=O)c2ccc(S(=O)(=O)c3ccc4c(c3)C(=O)C(C(=O)Nc3ccccc3C)C4=O)cc2C1=O (stereo not drawn) [Example 85] has a documented IC50 of 2.5

In plain terms, CC(C)(C)CC(=O)NCC(=O)C1C(=O)c2ccc(C(=O)c3ccc4c(c3)C(=O)C(C(=O)CNC(=O)CC(C)(C)C)C4=O)cc2C1=O (stereo not drawn) [Example 185] has a documented IC50 of 4.4

In plain terms, CC(C)(C)OC(=O)N1CCC[C@@H]1C(=O)C1C(=O)c2ccc(C(=O)c3ccc4c(c3)C(=O)C(C(=O)[C@H]3CCCN3C(=O)OC(C)(C)C)C4=O)cc2C1=O (stereo partly drawn) [Example 161] has a documented IC50 of 1

In plain terms, CC(C)(C)OC(=O)N1C[C@H](F)C[C@H]1C(=O)C1C(=O)c2ccc(C(=O)c3ccc4c(c3)C(=O)C(C(=O)[C@@H]3C[C@@H](F)CN3C(=O)OC(C)(C)C)C4=O)cc2C1=O (stereo partly drawn) [Example 113] has a documented IC50 of 5.4

In plain terms, CC(=O)C1C(=O)c2ccc(C(=O)c3ccc4c(c3)C(=O)C(C(C)=O)C4=O)cc2C1=O (stereo not drawn) [Example 1] has a documented IC50 of 7

In plain terms, O=C(c1ccc2c(c1)C(=O)C(C(=O)C1CCN(C(=O)OCc3ccccc3)C1)C2=O)c1ccc2c(c1)C(=O)C(C(=O)C1CCN(C(=O)OCc3ccccc3)C1)C2=O (stereo not drawn) [Example 159] has a documented IC50 of 3.8

In plain terms, COCCCNC(=O)C1C(=O)c2ccc(S(=O)(=O)c3ccc4c(c3)C(=O)C(C(=O)NCCCOC)C4=O)cc2C1=O (stereo not drawn) [Example 90] has a documented IC50 of 4.2

====

biological target: human PF4 (Homo sapiens, UniProt P02776); construct: PF4 is a 70 amino acid, lysine-rich 7.8 kDa platelet-specific protein; made in house; host or cells: Escherichia coli BL21DE3 pLysS (pT7-7) and/or Drosophila S2 cells; experiment: Inhibition of PF4 tetramer formation (BS3 cross-linking, SDS-PAGE); assay type: biochemical; settings: 3 μM inhibitor (column A); read-out: % inhibition of PF4 tetramer formation at single concentration of inhibitor
Overview of recorded inhibition at 3 µM for various compounds

Past entries and their recorded results:
INSERT INTO measurements (compound, measured) VALUES
  ('CO[C@@H](C)C(=O)C1C(=O)c2ccc(S(=O)(=O)c3ccc4c(c3)C(=O)C(C(=O)[C@@H](C)OC)C4=O)cc2C1=O (stereo partly shown) [Example 237]', '37%'),
  ('COCCOCCN(CC(=O)C1C(=O)c2ccc(S(=O)(=O)c3ccc4c(c3)C(=O)C(C(=O)CN(CCOCCOC)C(=O)OC(C)(C)C)C4=O)cc2C1=O)C(=O)OC(C)(C)C (stereo not shown) [Example 392]', '1%'),
  ('CC(C)C[C@@H](N)C(=O)C1C(=O)c2ccc(C(=O)c3ccc4c(c3)C(=O)C(C(=O)[C@H](N)CC(C)C)C4=O)cc2C1=O (stereo partly shown) [Example 354]', '32%'),
  ('COCCOCCC(=O)C1C(=O)c2ccc(C(=O)c3ccc4c(c3)C(=O)C(C(=O)CCOCCOC)C4=O)cc2C1=O (stereo not shown) [Example 382]', '70%'),
  ('CSCCCC(=O)C1C(=O)c2ccc(S(=O)(=O)c3ccc4c(c3)C(=O)C(C(=O)CCCSC)C4=O)cc2C1=O (stereo not shown) [Example 285]', '49%');

In plain terms, COCCOCCOCCNC(=O)C1C(=O)c2ccc(Oc3ccc4c(c3)C(=O)C(C(=O)NCCOCCOCCOC)C4=O)cc2C1=O (stereo not shown) [Example 384] has a documented inhibition at 3 µM of 9%

In plain terms, COCCOCCNC(=O)C1C(=O)c2ccc(S(=O)(=O)c3ccc4c(c3)C(=O)C(C(=O)NCCOCCOC)C4=O)cc2C1=O (stereo not shown) [Example 295] has a documented inhibition at 3 µM of 100%

In plain terms, O=C(c1ccc2c(c1)C(=O)C(C(=S)NC1CC1)C2=O)c1ccc2c(c1)C(=O)C(C(=S)NC1CC1)C2=O (stereo not shown) [Example 328] has a documented inhibition at 3 µM of 26%

In plain terms, O=C(CCC(=O)C1C(=O)c2ccc(Oc3ccc4c(c3)C(=O)C(C(=O)CCC(=O)c3cccc(Cl)c3Cl)C4=O)cc2C1=O)c1cccc(Cl)c1Cl (stereo not shown) [Example 258] has a documented inhibition at 3 µM of 33%

In plain terms, O=C1c2ccc(Oc3ccc4c(c3)C(=O)C(C(=O)C3CCC3)C4=O)cc2C(=O)C1C(=O)C1CCC1 (stereo not shown) [Example 297] has a documented inhibition at 3 µM of 100%

In plain terms, COCC(=O)C1C(=O)c2ccc(S(=O)(=O)c3ccc4c(c3)C(=O)C(C(=O)COC)C4=O)cc2C1=O (stereo not shown) [Example 377] has a documented inhibition at 3 µM of 41%

Source of measurements: patent US20250281424A1
